# measured-on: SCRIB_4, Q14160
# Sequence (Q14160 1095-1204): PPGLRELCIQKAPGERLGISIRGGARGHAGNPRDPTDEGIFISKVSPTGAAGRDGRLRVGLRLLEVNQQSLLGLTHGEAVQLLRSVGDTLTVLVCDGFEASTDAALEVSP
# procedure-summary: holdup assay
# Design: key: below the threshold = too weak to quantify, mostly under pKd 3.1 to 4
# condition-description: plain residues with an end cap or a label only (N-terminal biotin on a linker: ttds)

binder: SSIDLWETAL [SLC15A5, A6NIM6]
pKd: 4.97
--
binder: SGGKRKETLV [NET1, Q7Z628]
pKd: below the threshold
--
binder: SHSSKGETAV [FZD7, O75084]
pKd: below the threshold
--
binder: PPRQRSETQV [HPV82-E6, Q9IR59]
pKd: below the threshold
--
binder: SRSRRRETAL [HPV33-E6, P06427]
pKd: 4.24
--
binder: PSRDRKETSI [RALBP1, Q15311]
pKd: below the threshold
--
binder: KLVIKTETTV [RASSF6, Q6ZTQ3]
pKd: below the threshold
